Recorded values, source ChEMBL document CHEMBL5291721.

# TEST TARGET: Histamine H2 receptor (Homo sapiens); also: assay procedure not described here
# Sequence (P25021 whole entry): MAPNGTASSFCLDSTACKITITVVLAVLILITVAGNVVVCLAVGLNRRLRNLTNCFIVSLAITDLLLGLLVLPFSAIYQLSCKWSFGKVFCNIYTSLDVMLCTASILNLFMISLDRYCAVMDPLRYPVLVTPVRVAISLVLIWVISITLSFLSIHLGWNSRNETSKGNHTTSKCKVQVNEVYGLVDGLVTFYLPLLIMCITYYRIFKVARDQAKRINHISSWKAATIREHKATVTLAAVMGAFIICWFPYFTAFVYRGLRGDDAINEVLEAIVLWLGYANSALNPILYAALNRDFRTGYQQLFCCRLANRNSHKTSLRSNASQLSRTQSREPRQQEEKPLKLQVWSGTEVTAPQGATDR
# Type: functional, cell-based
OUTCOME MEASURE: AC50

Solved cases (5 shown):
* NC(=O)OCC(COC(N)=O)c1ccccc1 [FELBAMATE] | > 10 µM
* CN1C(C(=O)Nc2ccccn2)=C(O)c2sc(Cl)cc2S1(=O)=O | > 10 µM
* CO/N=C(\C(=O)N[C@@H]1C(=O)N2C(C(=O)O)=C(CSc3nnnn3C)CS[C@H]12)c1csc(N)n1 | > 30 µM
* Cc1cn([C@H]2C=C[C@@H](CO)O2)c(=O)[nH]c1=O | > 10 µM
* CN1CCC(=C2c3ccccc3CCc3sccc32)CC1 | > 10 µM

### Prompt I'm curious: which AC50 was measured for O=C(O)CCCCCCNC1c2ccccc2CCc2ccccc21 tested on Histamine H2 receptor (Homo sapiens)?; also: assay procedure not described here
### Response > 30 µM

### Prompt Please answer likewise for CC(C[N+](C)(C)C)OC(N)=O (stereo unspecified)
### Response > 10 µM

### Prompt Please answer likewise for CCC1(CC)C(=O)NCC(C)C1=O (stereo unspecified)
### Response > 30 µM

### Prompt Please answer likewise for Fc1ccc(C(c2ccccc2)(c2ccccc2F)n2ccnc2)cc1 (stereo unspecified)
### Response > 30 µM

### Prompt Please answer likewise for NCC(CC(=O)O)c1ccc(Cl)cc1 (stereo unspecified)
### Response > 10 µM

### Prompt Please answer likewise for CO[C@H]1C[C@@H]2CC[C@@H](C)[C@@](O)(O2)C(=O)C(=O)N2CCCC[C@H]2C(=O)O[C@H]([C@H](C)C[C@@H]2CC[C@@H](O)[C@H](OC)C2)CC(=O)[C@H](C)/C=C(\C)[C@@H](O)[C@@H](OC)C(=O)[C@H](C)C[C@H](C)/C=C/C=C/C=C/1C
### Response > 10 µM

### Prompt Please answer likewise for CCCC1O[C@@H]2C[C@H]3[C@@H]4CCC5=CC(=O)C=C[C@]5(C)[C@H]4[C@@H](O)C[C@]3(C)[C@]2(C(=O)CO)O1 (stereo partly specified) [BUDESONIDE]
### Response > 10 µM

### Prompt Please answer likewise for O=C(O)C[C@H](O)C[C@H](O)/C=C/c1c(C2CC2)nc2ccccc2c1-c1ccc(F)cc1
### Response > 10 µM

### Prompt Please answer likewise for CCOC(=O)[N-]c1cn(N2CCOCC2)n[o+]1
### Response > 30 µM

### Prompt Please answer likewise for COc1ccc(C(=O)Nc2ccccc2CCC2CCCCN2C)cc1 (stereo unspecified) [ENCAINIDE]
### Response > 10 µM

---

# TEST TARGET: Mu-type opioid receptor (Homo sapiens, UniProt P35372); also: assay procedure not described here
# Sequence (P35372 whole entry): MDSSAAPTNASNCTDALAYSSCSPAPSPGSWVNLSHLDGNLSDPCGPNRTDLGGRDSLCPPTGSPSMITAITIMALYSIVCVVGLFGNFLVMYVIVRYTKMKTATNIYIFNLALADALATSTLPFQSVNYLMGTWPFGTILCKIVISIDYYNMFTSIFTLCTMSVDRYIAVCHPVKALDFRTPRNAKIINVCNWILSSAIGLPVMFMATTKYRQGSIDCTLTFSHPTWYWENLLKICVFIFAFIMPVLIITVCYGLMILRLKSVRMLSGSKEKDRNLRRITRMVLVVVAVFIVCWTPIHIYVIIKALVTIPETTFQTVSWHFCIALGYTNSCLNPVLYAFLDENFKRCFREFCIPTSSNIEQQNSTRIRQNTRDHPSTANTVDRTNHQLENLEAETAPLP
AC50 listing for selected molecules.

### Prompt Which value of AC50 has been reported for Oc1c(Cl)cc(Cl)c2cccnc12 in the records?
### Response > 30 µM

---

The next entries give measured AC50 for D(3) dopamine receptor (Homo sapiens, UniProt P35462).

* C[C@H](CSC(=O)c1ccccc1)C(=O)N1C[C@@H](Sc2ccccc2)C[C@H]1C(=O)O | > 30 µM
* CN(C)CCC=C1c2ccccc2C(C)(C)c2ccccc21 | 1.89 µM
* OC(CNCC(O)C1CCc2cc(F)ccc2O1)C1CCc2cc(F)ccc2O1 (centres undefined) | 2 µM
* CC(C)Cn1cnc2c(N)nc3ccccc3c21 | > 30 µM
* COc1ccccc1N1CCN(CCCNc2cc(=O)n(C)c(=O)n2C)CC1 | 1.4 µM

Now look at this one.
### Prompt Which value of AC50 has been reported for CNS(=O)(=O)Cc1ccc2[nH]cc(CCN(C)C)c2c1 in the records?
### Response > 30 µM
